From: patent US20250129086A1

# Lookup of reported IC50 keyed by entry
# System: HCC827 (exon 19 deletion mutation)
# TEST_DETAILS: Cell antiproliferative assay (CTG, 72 h), HCC827
# Format: cell-based, human
# EXPERIMENTAL_CONTEXT: Homo sapiens, HCC827, 72 h, Table 2, HCC827 cells

Reference set (5 entries):
[
  {
    "COMPOUND": "COc1cc(N2CCN(C(=O)CN3CCC(c4ccc(NC5CCC(=O)NC5=O)cc4)CC3)CC2)c(-c2cnn(C)c2)cc1Nc1ncc(Cl)c(Nc2ccccc2C(C)=O)n1 (stereo not shown)",
    "IC50": "10 to 100 nM"
  },
  {
    "COMPOUND": "COc1cc(N2CCN(C(=O)CN3CCC(c4ccc(NC5CCC(=O)NC5=O)cc4)CC3)CC2)ccc1Nc1ncc(C(F)(F)F)c(Nc2ccccc2C(=O)NC2CCCC2)n1 (stereo not shown)",
    "IC50": "10 to 100 nM"
  },
  {
    "COMPOUND": "COc1cc(N2CCC(N3CCN(C(=O)CCCCN4CCC(c5ccc(NC6CCC(=O)NC6=O)cc5)CC4)CC3)CC2)ccc1Nc1ncc(Cl)c(Nc2ccccc2N(C)S(C)(=O)=O)n1 (stereo not shown)",
    "IC50": "100 to 1000 nM"
  },
  {
    "COMPOUND": "COc1cc(N2CCN(C(=O)CN3CCC(c4ccc(NC5CCC(=O)NC5=O)cc4)CC3)CC2)ccc1Nc1ncc(C(F)(F)F)c(Nc2ccccc2C(=O)Nc2ccccc2)n1 (stereo not shown)",
    "IC50": "100 to 1000 nM"
  },
  {
    "COMPOUND": "COc1cc(N2CC3CN(C(=O)CN4CCC(c5ccc(NC6CCC(=O)NC6=O)cc5)CC4)CC3C2)ccc1Nc1ncc(Cl)c(Nc2ccccc2C(C)=O)n1 (stereo not shown)",
    "IC50": "100 to 1000 nM"
  }
]

**Q:** Bench note: what IC50 did COc1cc(N2CC[C@H](NC(=O)CN3CCC(c4ccc(NC5CCC(=O)NC5=O)cc4)CC3)C2)ccc1Nc1ncc(Cl)c(Nc2ccccc2C(C)=O)n1 (stereo partly shown) show?
**A:** ≥ 1000 nM

**Q:** Bench note: what IC50 did COc1cc(N2CCN(C(=O)CN3CCC(c4ccc(NC5CCC(=O)NC5=O)cc4)CC3)CC2)c(C)cc1Nc1ncc(Cl)c(Nc2ccccc2P(C)(C)=O)n1 (stereo not shown) show?
**A:** 100 to 1000 nM

**Q:** Bench note: what IC50 did COc1cc(C2CCN(C(=O)CN3CCC(c4ccc(NC5CCC(=O)NC5=O)cc4)CC3)CC2)ccc1Nc1ncc(Cl)c(Nc2ccccc2C(C)=O)n1 (stereo not shown) show?
**A:** 100 to 1000 nM

**Q:** Bench note: what IC50 did COc1cc(N2CC3(CN(C(=O)CN4CCC(c5ccc(NC6CCC(=O)NC6=O)cc5)CC4)C3)C2)ccc1Nc1ncc(Cl)c(Nc2ccccc2C(C)=O)n1 (stereo not shown) show?
**A:** 100 to 1000 nM

---

# TGT: EGFR (Homo sapiens, UniProt P00533, DEL746-750)
# Construct: host or cells: HCC827
# Sequence (P00533 with tags, fused parts or gaps DEL746-750): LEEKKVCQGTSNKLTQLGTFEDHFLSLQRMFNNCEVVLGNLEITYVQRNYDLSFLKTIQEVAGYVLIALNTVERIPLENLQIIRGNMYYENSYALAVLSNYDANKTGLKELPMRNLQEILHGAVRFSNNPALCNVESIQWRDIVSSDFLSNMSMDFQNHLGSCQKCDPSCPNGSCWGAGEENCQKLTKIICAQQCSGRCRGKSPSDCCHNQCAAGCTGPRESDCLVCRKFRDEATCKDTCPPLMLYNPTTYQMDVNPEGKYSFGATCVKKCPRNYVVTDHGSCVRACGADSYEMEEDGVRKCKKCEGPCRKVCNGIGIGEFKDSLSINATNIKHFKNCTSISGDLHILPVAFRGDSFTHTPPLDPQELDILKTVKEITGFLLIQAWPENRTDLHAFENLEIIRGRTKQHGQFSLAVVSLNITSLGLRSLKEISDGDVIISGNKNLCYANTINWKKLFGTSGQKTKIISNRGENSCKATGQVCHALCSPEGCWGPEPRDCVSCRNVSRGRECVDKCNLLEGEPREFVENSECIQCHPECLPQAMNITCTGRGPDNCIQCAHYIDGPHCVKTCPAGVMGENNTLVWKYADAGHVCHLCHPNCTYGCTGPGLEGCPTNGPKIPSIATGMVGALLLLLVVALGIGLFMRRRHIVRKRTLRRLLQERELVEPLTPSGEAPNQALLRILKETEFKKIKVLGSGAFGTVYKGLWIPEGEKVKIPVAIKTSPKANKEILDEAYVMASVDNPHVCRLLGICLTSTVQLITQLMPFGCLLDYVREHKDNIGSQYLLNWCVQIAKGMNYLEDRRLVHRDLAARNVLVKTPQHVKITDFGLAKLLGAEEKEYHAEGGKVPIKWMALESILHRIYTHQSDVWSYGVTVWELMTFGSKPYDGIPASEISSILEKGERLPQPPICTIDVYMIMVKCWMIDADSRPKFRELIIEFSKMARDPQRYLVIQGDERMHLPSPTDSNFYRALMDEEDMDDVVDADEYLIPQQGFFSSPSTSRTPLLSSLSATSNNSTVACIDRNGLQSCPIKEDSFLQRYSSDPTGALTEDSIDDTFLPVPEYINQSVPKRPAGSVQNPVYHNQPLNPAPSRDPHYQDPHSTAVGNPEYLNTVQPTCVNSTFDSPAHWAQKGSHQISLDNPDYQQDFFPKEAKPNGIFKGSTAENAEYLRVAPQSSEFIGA
# TEST_DETAILS: EGFR PROTAC In Cell Western assay in HCC827
# Assay type: cell-based
# EXPERIMENTAL_CONTEXT: HCC827, Table 5; HCC827, EGFR degradation, 16 hours of incubation
OBSERVABLE: Dmax (%)
Quick note: give the figure in %, leave out the unit.

Reference set (3 entries):
[
  {
    "MOLECULE": "COc1cc(N2CCN(C(=O)CN3CCC(c4ccc(NC5CCC(=O)NC5=O)cc4)CC3)CC2)ccc1Nc1ncc(Cl)c(Nc2ccccc2C(C)=O)n1 (stereo not shown)",
    "READOUT_UNITS": "%",
    "Dmax": 70.5
  },
  {
    "MOLECULE": "COc1cc(N2CCC(N3CCN(C(=O)CCCCN4CCN(c5ccc6c(c5)C(=O)N(C5CCC(=O)NC5=O)C6=O)CC4)CC3)CC2)ccc1Nc1ncc(Cl)c(Nc2ccccc2N(C)S(C)(=O)=O)n1 (stereo not shown) [Comparative Compound 3, reference compound]",
    "READOUT_UNITS": "%",
    "Dmax": 56.4
  },
  {
    "MOLECULE": "COc1cc(N2CCC(N3CCN(C(=O)C4CCN(CC5CCN(c6ccc7c(c6)C(=O)N(C6CCC(=O)NC6=O)C7=O)CC5)CC4)CC3)CC2)ccc1Nc1ncc(Cl)c(Nc2ccccc2P(C)(C)=O)n1 (stereo not shown) [Comparative Compound 2, reference compound]",
    "READOUT_UNITS": "%",
    "Dmax": 64.7
  }
]

Now look at this entry.
**Q:** Bench note: what Dmax did CNC(=O)c1ccccc1Nc1nc(Nc2ccc(N3CCN(C(=O)CN4CCC(c5ccc(NC6CCC(=O)NC6=O)cc5)CC4)CC3)cc2OC)ncc1Cl (stereo not shown) show?
**A:** 70.8

---

# TGT: EGFR (Homo sapiens, UniProt P00533, DEL746-750)
# Construct: host or cells: HCC827
# TEST_DETAILS: EGFR PROTAC In Cell Western assay in HCC827
# Format: cell-based
# EXPERIMENTAL_CONTEXT: Table 4; HCC827, EGFR degradation, 16 hours of incubation
OBSERVABLE: DC50

Reference set (6 entries):
[
  {
    "COMPOUND": "COc1cc(N2CCN(C(=O)CN3CCN(c4ccc(NC5CCC(=O)NC5=O)cc4)CC3)CC2)ccc1Nc1ncc(Br)c(Nc2ccccc2C(C)=O)n1 (stereo not shown) [Compound T-84]",
    "TGT": "EGFR (Homo sapiens, UniProt P00533, DEL746-750)",
    "DC50": "10 to 100 nM"
  },
  {
    "COMPOUND": "COc1cc(N2CCC(NC(=O)CN3CCC(c4ccc(NC5CCC(=O)NC5=O)cc4)CC3)CC2)ccc1Nc1ncc(Cl)c(Nc2ccccc2C(C)=O)n1 (stereo not shown) [Compound T-336]",
    "TGT": "EGFR (Homo sapiens, UniProt P00533, DEL746-750)",
    "DC50": "10 to 100 nM"
  },
  {
    "COMPOUND": "COc1cc(N2CCC(N3CCN(C(=O)C4CCN(CC5CCN(c6ccc7c(c6)C(=O)N(C6CCC(=O)NC6=O)C7=O)CC5)CC4)CC3)CC2)ccc1Nc1ncc(Cl)c(Nc2ccccc2P(C)(C)=O)n1 (stereo not shown) [Comparative Compound 2, reference compound]",
    "TGT": "EGFR (Homo sapiens, UniProt P00533, DEL746-750)",
    "DC50": "10 to 100 nM"
  },
  {
    "COMPOUND": "COc1cc(N2CCC(N(C)C(=O)CN3CCC(c4ccc(NC5CCC(=O)NC5=O)cc4)CC3)CC2)ccc1Nc1ncc(C(F)(F)F)c(Nc2ccccc2C(C)=O)n1 (stereo not shown) [Compound T-163]",
    "TGT": "EGFR (Homo sapiens, UniProt P00533, DEL746-750)",
    "DC50": "100 to 1000 nM"
  },
  {
    "COMPOUND": "COc1cc(C(=O)N2CCC(c3ccc(NC4CCC(=O)NC4=O)cc3)CC2)ccc1Nc1ncc(Cl)c(Nc2ccccc2C(C)=O)n1 (stereo not shown) [Compound T-130]",
    "TGT": "EGFR (Homo sapiens, UniProt P00533, DEL746-750)",
    "DC50": "100 to 1000 nM"
  },
  {
    "COMPOUND": "COc1cc(N2CC[C@H](N(C)C(=O)CN3CCC(c4ccc(NC5CCC(=O)NC5=O)cc4)CC3)C2)ccc1Nc1ncc(Cl)c(Nc2ccccc2C(C)=O)n1 (stereo partly shown) [Compound T-172]",
    "TGT": "EGFR (Homo sapiens, UniProt P00533, DEL746-750)",
    "DC50": "10 to 100 nM"
  }
]

**Q:** Bench note: what DC50 did COc1cc(N2CCN(C(=O)CN3CCC(c4ccc(NC5CCC(=O)NC5=O)cc4)CC3)CC2)ccc1Nc1ncc(C(F)(F)F)c(Nc2ccccc2C(C)=O)n1 (stereo not shown) [Compound T-47] show?
**A:** 10 to 100 nM

**Q:** Bench note: what DC50 did COc1cc(N2CCN(C(=O)CN3CCN(c4ccc(NC5CCC(=O)NC5=O)nc4)CC3)CC2)ccc1Nc1ncc(Cl)c(Nc2ccccc2C(C)=O)n1 (stereo not shown) [Compound T-101] show?
**A:** 10 to 100 nM

**Q:** Bench note: what DC50 did CNC(=O)c1ccccc1Nc1nc(Nc2cc(C)c(N3CCN(C(=O)CN4CCC(c5ccc(NC6CCC(=O)NC6=O)cc5)CC4)CC3)cc2OC)ncc1Cl (stereo not shown) [Compound T-254] show?
**A:** 10 to 100 nM

**Q:** Bench note: what DC50 did COc1cc(N2CCN(C(=O)CN3CCC(c4ccc(NC5CCC(=O)NC5=O)cc4)CC3)CC2C)ccc1Nc1ncc(Cl)c(Nc2ccccc2C(C)=O)n1 (stereo not shown) [Compound T-60] show?
**A:** 10 to 100 nM

**Q:** Bench note: what DC50 did COc1cc(N2C3CCC2CN(C(=O)CN2CCC(c4ccc(NC5CCC(=O)NC5=O)cc4)CC2)C3)ccc1Nc1ncc(Cl)c(Nc2ccccc2C(C)=O)n1 (stereo not shown) [Compound T-191] show?
**A:** 100 to 1000 nM

**Q:** Bench note: what DC50 did COc1cc(N2CCN(C(=O)CN3CCC(c4ccc(NC5CCC(=O)NC5=O)cc4)CC3)CC2)ccc1Nc1ncc(C(F)(F)F)c(Nc2ccc(F)cc2F)n1 (stereo not shown) [Compound T-131] show?
**A:** 10 to 100 nM

**Q:** Bench note: what DC50 did COc1cc(N2CCC(N3CCN(C(=O)CN4CCC(c5ccc(NC6CCC(=O)NC6=O)cc5)CC4)CC3)CC2)ccc1Nc1ncc(Cl)c(Nc2ccccc2C(C)=O)n1 (stereo not shown) [Compound T-121] show?
**A:** 100 to 1000 nM

**Q:** Bench note: what DC50 did COc1cc(C2CCN(C(=O)CN3CCC(c4ccc(NC5CCC(=O)NC5=O)cc4)CC3)CC2)ccc1Nc1ncc(Cl)c(Nc2ccccc2C(C)=O)n1 (stereo not shown) [Compound T-334] show?
**A:** 100 to 1000 nM

**Q:** Bench note: what DC50 did COc1cc(N2CCN(C(=O)CN3CCC(c4ccc(NC5CCC(=O)NC5=O)cc4)CC3)CC2)ccc1Nc1ncc(Cl)c(Nc2ccccc2C(C)=O)n1 (stereo not shown) [Compound T-12] show?
**A:** 10 to 100 nM

**Q:** Bench note: what DC50 did COc1cc(N2CC(NC(=O)CN3CCC(c4ccc(NC5CCC(=O)NC5=O)cc4)CC3)C2)ccc1Nc1ncc(Cl)c(Nc2ccccc2C(C)=O)n1 (stereo not shown) [Compound T-169] show?
**A:** ≥ 1000 nM

**Q:** Bench note: what DC50 did COc1cc(N2CCN(C(=O)CN3CCC(c4ccc(NC5CCC(=O)NC5=O)cc4)CC3)CC2)ncc1Nc1ncc(C(F)(F)F)c(Nc2ccccc2C(C)=O)n1 (stereo not shown) [Compound T-246] show?
**A:** ≤ 10 nM

**Q:** Bench note: what DC50 did CNC(=O)c1ccccc1Nc1nc(Nc2ccc(N3CCN(C(=O)CN4CCC(c5ccc(NC6CCC(=O)NC6=O)cc5)CC4)CC3)cc2OC)ncc1Cl (stereo not shown) [Compound T-184] show?
**A:** 10 to 100 nM

**Q:** Bench note: what DC50 did COc1cc(N2CCN(C(=O)CN3CCC(c4ccc(NC5CCC(=O)NC5=O)cc4)CC3)CC2)ccc1Nc1ncc(Cl)c(Nc2ccccc2C(=O)C(C)C)n1 (stereo not shown) [Compound T-190] show?
**A:** ≥ 1000 nM

**Q:** Bench note: what DC50 did COc1cc(N2CCN(CCN3CCC(c4ccc(NC5CCC(=O)NC5=O)cc4)CC3)CC2)ccc1Nc1ncc(Cl)c(Nc2ccccc2C(C)=O)n1 (stereo not shown) [Compound T-182] show?
**A:** 10 to 100 nM

**Q:** Bench note: what DC50 did COc1cc(N2CC3(CN(C(=O)CN4CCC(c5ccc(NC6CCC(=O)NC6=O)cc5)CC4)C3)C2)ccc1Nc1ncc(Cl)c(Nc2ccccc2C(C)=O)n1 (stereo not shown) [Compound T-66] show?
**A:** 10 to 100 nM

**Q:** Bench note: what DC50 did C=CC(=O)Nc1cc(Nc2ncc(Cl)c(Nc3ccccc3)n2)c(OC)cc1N1CCN(C(=O)CN2CCC(c3ccc(NC4CCC(=O)NC4=O)cc3)CC2)CC1 (stereo not shown) [Compound T-335] show?
**A:** 100 to 1000 nM
